Source of measurements: patent US20180179198A1

Would you mind telling me the reported pIC50 of each entry?
- Assay target: TNFα trimer (Homo sapiens)
- Sequence (P01375 77-233 limits assumed): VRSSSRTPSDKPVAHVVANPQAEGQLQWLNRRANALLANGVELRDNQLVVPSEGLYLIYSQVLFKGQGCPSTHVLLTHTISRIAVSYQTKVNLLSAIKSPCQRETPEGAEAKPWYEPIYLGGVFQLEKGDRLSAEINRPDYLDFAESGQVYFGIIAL
- Procedure summary: TNFα FP Competitive Binding Assay
- Condition context: TNFα FP competitive binding assay; class symbols A/B/C; read-out: TNF IC50
pIC50: −log10 of the molar value.

List pIC50 for every entry below, keeping the order given.
1. CC(C)Nc1ncc(-c2ccc3nc4n(c3n2)C2(CCOc3ccccc32)COC4)cn1 (stereo not drawn)
2. OC(c1ncc(-c2ccc3nc4n(c3n2)[C@@H](c2ccccc2)CC4)cn1)C1CCOCC1 (stereo partly drawn)
3. OC1(c2ncc(-c3ccc4nc5n(c4c3)[C@@H](c3ccccc3)CC5)cn2)CCC1
4. c1ccc(C2COCc3nc4ccc(-c5cnc(-n6ccnc6)cn5)cc4n32)cc1 (stereo not drawn)
5. c1ccc(C2COCc3nc4ccc(-c5ccc(N6CCNCC6)nc5)cc4n32)cc1 (stereo not drawn)
6. COc1ccccc1C1CCCc2nc3ccc(-c4cnc(N5CCC(O)CC5)nc4)cn3c21 (stereo not drawn)

5.00 to 6.00
5.00 to 6.00
> 6.00
5.00 to 6.00
5.00 to 6.00
> 6.00
